- System: A375 cells
- measurement_description: Cytotoxicity test (8) of released drug
- Type: cell-based
- test_settings: Homo sapiens, A-375, 144 h, read-out: IC50, cytotoxic activity against the A375 cells
So I've got a bunch of compounds here, and I need their IC50 values.

Record summary for `CC[C@@]1(O)C(=O)OCc2c1cc1n(c2=O)Cc2c-1nc1cc(F)c(C)c3c1c2[C@@H](NC(=O)COCCN)CC3` : reported IC50 = 1 to 10 nM

Record summary for `CC[C@@]1(O)C(=O)OCc2c1cc1n(c2=O)Cc2c-1nc1cc(F)c(C)c3c1c2[C@@H](NC(=O)CCCN)CC3` : reported IC50 = 10 to 100 nM

Record summary for `CC[C@@]1(O)C(=O)OCc2c1cc1n(c2=O)Cc2c-1nc1cc(F)c(C)c3c1c2[C@@H](NC(=O)CO)CC3` : reported IC50 = 0.1 to 1 nM

---

- System: A375 cells
- measurement_description: Cytotoxicity test (8) of released drug
- Assay type: cell-based
- test_settings: Homo sapiens, A-375, 144 h; released drug; cultured 6 days; CellTiter-Glo; read-out: IC50, cytotoxic activity against the A375 cells
pIC50: −log10 of the molar value.
measured_endpoint: pIC50

Record summary for CC[C@@]1(O)C(=O)OCc2c1cc1n(c2=O)Cc2c-1nc1cc(F)c(C)c3c1c2[C@@H](N)CC3 [exatecan] : reported pIC50 = 9.00 to 10.00
